target: human dopamine D2 receptor (hD2R) (Homo sapiens, UniProt P14416); test: Human D2 receptor binding assay ([^3H]-Spiperone); conditions: CHO cells expressing hD2R, geometric mean of 2-5 determinations unless marked b (single determination)
Sequence (P14416 whole entry): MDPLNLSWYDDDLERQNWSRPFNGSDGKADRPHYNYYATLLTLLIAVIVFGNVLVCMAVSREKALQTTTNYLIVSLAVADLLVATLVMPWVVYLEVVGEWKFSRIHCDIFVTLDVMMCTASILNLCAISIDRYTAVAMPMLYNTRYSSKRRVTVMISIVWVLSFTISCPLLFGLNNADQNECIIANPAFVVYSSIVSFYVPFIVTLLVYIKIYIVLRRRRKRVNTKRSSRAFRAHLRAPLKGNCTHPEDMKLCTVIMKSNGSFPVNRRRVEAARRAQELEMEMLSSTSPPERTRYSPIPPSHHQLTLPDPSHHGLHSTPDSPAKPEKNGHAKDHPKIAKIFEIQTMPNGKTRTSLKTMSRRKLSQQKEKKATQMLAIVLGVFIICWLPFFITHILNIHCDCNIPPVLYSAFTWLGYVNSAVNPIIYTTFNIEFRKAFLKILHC
pKi: −log10 of the molar value.
READOUT: pKi

INSERT INTO results (smiles_code, experimental_value) VALUES
  ('CCN1CCc2cc(NS(=O)(=O)c3ccc(C4CCOCC4)cc3)c(OC)nc2CC1', 6.64),
  ('CCN1CCc2cc(NS(=O)(=O)c3ccc(C)cc3C)c(OC)nc2CC1', 6.56),
  ('CCO[C@H]1C[C@H](c2ccc(S(=O)(=O)Nc3cc4c(nc3OC)CCN(C)CC4)cn2)C1', 5.74),
  ('CCN1CCc2cc(NS(=O)(=O)c3ccc(C4CC4)cc3)c(OC)nc2CC1', 7.26),
  ('COc1nc2c(cc1NS(=O)(=O)c1ccc(C3CCCCC3)nc1)CCN(C)CC2', 7.41);
